- system_tested: Nuclear receptor subfamily 1 group I member 2 (Homo sapiens)
- experimental_details: Human pregnane X receptor (PXR) small molecule agonists, qHTS assay (AID 1346982); note: % is set by controls: 0 for no effect and ±100 for the full control effect; nearly all actives have a fitted effect of over 35% in size
- condition_notes: PXR-Luc HepG2, CYP3A4 luciferase reporter, 24 h; series mostly up to 92.4 µM
Inconclusive results are not listed. Active and inactive are the calls of the source. Calls come from the whole dose curve; as a rule, active = well fitted activation curve with a large enough effect in the repeat runs; inconclusive = weak or mixed curves; inactive = no such curve, though single readings can be large or run the other way.
metric: activation

Before answering, review these 3 worked examples.
O=C(O)Cc1cccc(-c2cc(CCCCCCc3ccc(O[C@H]4O[C@H](CO)[C@@H](O)[C@H](O)[C@@H]4O)c(-c4cccc(CC(=O)O)c4)c3)ccc2O[C@H]2O[C@H](CO)[C@@H](O)[C@H](O)[C@@H]2O)c1    -9.1% [at 0.349 µM] (inactive)
BrC/C=C/CBr    -6.32% [at 19 µM] (inactive)
Nc1ccc(/C=C/c2ccc(N)cc2S(=O)(=O)O)c(S(=O)(=O)O)c1    -2.19% [at 0.349 µM] (inactive)

# context switch: different molecule, same activation
# get_value(readout= activation, system= Nuclear receptor subfamily 1 group I member 2 (Homo sapiens)) for "O=C(Nc1cccc(C2=NCCN2)c1)Nc1cccc(C2=NCCN2)c1"
-0.413% [at 19 µM] (inactive)

---

- system_tested: Nuclear receptor subfamily 1 group I member 2 (Homo sapiens) (UniProt O75469)
- Sequence (O75469 whole entry, looked up): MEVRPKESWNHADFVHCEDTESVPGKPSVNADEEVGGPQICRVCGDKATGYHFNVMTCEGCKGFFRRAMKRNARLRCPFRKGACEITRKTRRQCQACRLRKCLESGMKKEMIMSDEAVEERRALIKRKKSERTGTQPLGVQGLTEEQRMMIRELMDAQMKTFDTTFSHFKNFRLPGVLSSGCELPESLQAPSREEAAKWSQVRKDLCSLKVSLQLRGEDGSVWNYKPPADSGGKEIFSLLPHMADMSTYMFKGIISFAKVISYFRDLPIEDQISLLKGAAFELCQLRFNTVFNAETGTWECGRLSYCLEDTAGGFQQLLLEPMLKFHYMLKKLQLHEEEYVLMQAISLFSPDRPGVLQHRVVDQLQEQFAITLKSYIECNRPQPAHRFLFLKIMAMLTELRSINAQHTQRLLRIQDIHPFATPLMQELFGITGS
- experimental_details: Human pregnane X receptor (PXR) small molecule agonists, qHTS assay (AID 1346982); note: % is set by controls: 0 for no effect and ±100 for the full control effect; nearly all actives have a fitted effect of over 35% in size
- condition_notes: PXR-Luc HepG2, CYP3A4 luciferase reporter, 24 h; series mostly up to 92.4 µM
Results filed as inconclusive are left out. Active and inactive are the calls of the source. The call rests on the fitted dose curve; in most records, active means well fitted activation curve with a large enough effect in the repeat runs; inconclusive means weak or mixed curves; inactive means no such curve, though single readings can be large or run the other way.
metric: outcome

Before answering, review these 8 worked examples.
O=C(COCCOCCOCC(=O)Nc1c(I)cc(I)c(C(=O)O)c1I)Nc1c(I)cc(I)c(C(=O)O)c1I    inactive
CCC(=O)c1ccc(O)cc1    inactive
COc1cc([N+](=O)[O-])ccc1N    inactive
CCCCCCCCCCC    inactive
CCCCOC(=O)C(=O)OCCCC    inactive
CC(=O)Nc1ncc([N+](=O)[O-])s1    inactive
CCCCCC1Nc2cc(C(F)(F)F)c(S(N)(=O)=O)cc2S(=O)(=O)N1 (centres undefined)    inactive
CCCCC(C)C(=O)O (centres undefined)    inactive

I am curious: what outcome value has been reported for CCCCCN(CCCOC)C(=O)C(CCC(=O)O)NC(=O)c1ccc(Cl)c(Cl)c1 (centres undefined) ?
inactive

Check "O=C(O)c1c(Cl)ccc(Cl)c1Cl" too.
inactive

Check "O=C(O)/C=C/c1ccccc1" too.
inactive

Check "CCCCCCCCCCCCOC(C)=O" too.
inactive

Check "CCCCC(=O)N(C)C" too.
inactive

Check CCCCCC1CCCC(=O)O1 (centres undefined) too.
inactive

---

- experimental_details: qHTS assay to test for compound auto fluorescence at 590 nm (red) in HEK293 cells (AID 720679); note: % is set by controls: 0 for no effect and ±100 for the full control effect
- condition_notes: red autofluorescence 540/590 nm; series mostly up to 91.3 µM
Activity calls are given as the source filed them. Calls come from the whole dose curve; as a rule, active = well fitted curve in the direction sought with a large enough effect in the repeat runs; inconclusive = weak or mixed curves; inactive = flat fitted curve, though single readings scatter.
metric: fluorescence, % of fluorescent control

Before answering, review these 5 worked examples.
COCC(=O)Nc1c(I)c(C(=O)NCC(O)CO)c(I)c(C(=O)N(C)CC(O)CO)c1I (stereo not drawn)    0.231% [at 18.6 µM] (inactive)
CC(C)c1ccccc1O    inactive
COC(=O)CCC(=O)O    inactive
O=CO    0.473% [at 9.17 µM] (inactive)
O=C1CC[C@H](C(=O)N2CCCCC2)N1    inactive

I am curious: what fluorescence, % of fluorescent control value has been reported for "C[C@H](CCC(=O)NCC(=O)O)[C@H]1CC[C@H]2[C@@H]3[C@H](O)C[C@@H]4C[C@H](O)CC[C@]4(C)[C@H]3C[C@H](O)[C@]12C" ?
inactive

Check "CCC(=O)c1ccc(O)cc1" too.
inactive

Check "O=C(Nc1cccc(C2=NCCN2)c1)Nc1cccc(C2=NCCN2)c1" too.
inactive

Check "CCCCCCCCC(=O)OCC" too.
inactive

Check "CC(=O)c1ccc2c(c1)CCCC2" too.
inactive

Check "CC(=O)OCCCc1ccccc1" too.
inactive

Check "CCOC(=O)CC(CC(=O)OCC)(OC(C)=O)C(=O)OCC" too.
inactive

Check "C[CH2][Ge]([Cl])([CH2]C)[CH2]C" too.
inactive

---

- system_tested: Cytochrome P450 2D6 (Homo sapiens) (UniProt P10635)
- Sequence (P10635 whole entry, looked up): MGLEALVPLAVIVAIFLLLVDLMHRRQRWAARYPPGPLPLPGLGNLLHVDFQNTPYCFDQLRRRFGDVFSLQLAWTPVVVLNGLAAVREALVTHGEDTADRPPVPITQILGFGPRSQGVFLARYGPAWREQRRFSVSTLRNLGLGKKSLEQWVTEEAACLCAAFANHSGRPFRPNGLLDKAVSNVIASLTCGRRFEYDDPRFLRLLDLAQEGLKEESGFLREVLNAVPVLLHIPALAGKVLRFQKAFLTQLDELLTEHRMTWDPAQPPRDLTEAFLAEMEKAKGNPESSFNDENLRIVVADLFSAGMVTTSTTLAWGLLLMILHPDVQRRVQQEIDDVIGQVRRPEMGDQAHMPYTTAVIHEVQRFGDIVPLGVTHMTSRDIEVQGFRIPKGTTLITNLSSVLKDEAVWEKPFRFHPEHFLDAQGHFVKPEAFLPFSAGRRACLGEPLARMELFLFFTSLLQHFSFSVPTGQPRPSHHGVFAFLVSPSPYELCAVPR
- experimental_details: Cytochrome P450 Family 2 Subfamily D Member 6 (CYP2D6) small molecule antagonists: luciferase reporter qHTS assay (AID 1671196); note: nearly all actives have a fitted effect of over 50% in size
- condition_notes: P450-Glo CYP2D6 enzyme assay, luciferin luminescence, 1 h; series mostly up to 115 µM
Inconclusive results are not listed. Calls of active or inactive are those of the source. The call rests on the fitted dose curve; in most records, active means well fitted inhibition curve with a large enough effect in the repeat runs; inconclusive means weak or mixed curves; inactive means no such curve, though single readings can be large or run the other way.
# valid calls are active, inactive; nothing else

Illustrative cases are given below, each with its answer.
O=C(c1ccc2c(c1)C(=O)OC2=O)c1ccc2c(c1)C(=O)OC2=O    inactive
CCCCCCCCCCCCCCCCCCN(C)C    inactive
SCCSCCS    inactive
Cc1cccc(C(=O)O)c1[N+](=O)[O-]    active
C1=CCC(c2ccccc2)CC1 (stereo not drawn)    inactive

Given "Cc1ccc(S(=O)(=O)NC(=O)NC2CCCCCCC2)cc1" , state the outcome it received in this test.
inactive

Check "C[CH2][Ge]([Cl])([CH2]C)[CH2]C" too.
inactive

Check "CO/N=C(/C(=O)N[C@@H]1C(=O)N2C(C(=O)O)=C(Cn3nnc(C)n3)CS[C@H]12)c1csc(N)n1" too.
inactive

Check CC(Cl)COP(=O)(OCC(C)Cl)OCC(C)Cl (stereo not drawn) too.
inactive

Check "O=C(O)CCNC(=O)c1ccccc1" too.
inactive

Check "CC(C)COC(=O)COc1ccc(Cl)cc1Cl" too.
inactive

Check "CCCCCCCCCCCCC" too.
inactive

Check "CCNC(=O)/C=C/c1cccc(Br)c1" too.
inactive

---

- experimental_details: qHTS assay to identify small molecule agonists or antagonists of the thyroid stimulating hormone receptor (TSHR) signaling pathway - wild type cell line counter screen (AID 1259384); note: % is set by controls: 0 for no effect and ±100 for the full control effect
- condition_notes: HEK293 wild type, cAMP HTRF counter-screen, hits give high values; series mostly up to 92.4 µM
Results filed as inconclusive are left out. The source made the active and inactive calls. Calls follow the shape of the full dose curve.
metric: cAMP activity change

Before answering, review these 5 worked examples.
O=c1[nH]c(=O)c2ccccc2o1    inactive
CNC(=O)C(c1ccccc1)c1ccccc1    inactive
CC1(N)CCC(C(C)(C)N)CC1 (stereo unspecified)    inactive
Cc1ncc([N+](=O)[O-])n1CC(O)CCl (stereo unspecified)    inactive
CC1CCC(C(C)(C)S)C(=O)C1 (stereo unspecified)    inactive

# context switch: different compound, same cAMP activity change
I am curious: what cAMP activity change value has been reported for "CCC(C)(C)C1CCC(=O)CC1" ?
inactive

---

- experimental_details: qHTS assay to identify small molecule agonists of H2AX - cell viability counter screen (AID 1224847);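 note: wild-type CHO-K1 cells; top concentration of the series differs between compounds; % is set by controls: 0 for no effect and ±100 for the full control effect; nearly all actives have a fitted effect of over 30% in size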
- condition_notes: CHO-K1 viability, CellTiter-Glo luminescence, 3 h; series mostly up to 154 µM
Inconclusive results are not listed. Calls of active or inactive are those of the source. Calls follow the shape of the full dose curve.
metric: activity change, negative = cytotoxicity

Before answering, review these 8 worked examples.
OCCCCCCCl    inactive
N#CCCOCCOCCC#N    inactive
COC(OC)C(C)c1ccccc1 (stereo not given)    inactive
CCCCCCCC/C=C\CCCCCCCC(=O)OC[C@@H](O)[C@H]1OC[C@H](O)[C@H]1O    inactive
FC(F)(F)/C(=N\OCC1OCCO1)c1ccc(Cl)cc1    inactive
CC(C)SCc1ccco1    inactive
C=C[C@@H](C)CCC=C(C)C    inactive
COc1cc(C=O)ccc1OC(=O)C(C)C    inactive

I am curious: what activity change, negative = cytotoxicity value has been reported for "C=CCCCCCCCCCCC" ?
3.67% [at 14 µM] (inactive)

Check CCC(C)(CCC(C)C)C(=O)[O-].CCC(C)(CCC(C)C)C(=O)[O-].[Zn+2] (stereo not given) too.
inactive

Check "C=COCCOCCOC=C" too.
inactive

Check "CC(C)c1ccccc1O" too.
inactive

Check "CCc1nccnc1C" too.
inactive

Check "CCCCC[Si](OCC)(OCC)OCC" too.
inactive

Check "CCC(C)(C)C1CCC(=O)CC1" too.
inactive

---

- experimental_details: qHTS assay to identify small molecule agonists of the sonic hedgehog signaling (Shh) pathway (AID 1259368);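 note: NIH/3T3-derived 3T3Gli1-Luc cells carrying a stable Gli1-driven firefly luciferase reporter; % is set by controls: 0 for no effect and ±100 for the full control effect; nearly all actives have a fitted effect of over 15% in size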
- condition_notes: NIH/3T3 Gli1-Luc reporter, luciferase, 24 h, hits give high values; series mostly up to 92.4 µM
Active and inactive are the calls of the source. Calls follow the shape of the full dose curve.
metric: activity change

c1ccc(CNc2ncnc3nc[nH]c23)cc1    inactive
O=C(O)CCNC(=O)c1ccccc1    inactive
C=CCOCC(CO)(COCC=C)COCC=C    inactive
Cc1oc(=O)oc1CN1CCN(c2cc3c(cc2F)c(=O)c(C(=O)O)c2n3C(C)S2)CC1 (configuration not stated)    inactive

I am curious: what activity change value has been reported for "COc1cc(C=O)ccc1OC(=O)C(C)C" ?
inactive

Check "O=C(O)c1ccccc1C(=O)Nc1ccc(S(=O)(=O)Nc2nccs2)cc1" too.
inactive

Check "CCCO" too.
inactive

Ref: PubChem BioAssay (Tox21)
